Target: T1, human cell-surface M-CSF on stably transfected CHO cells (human, UniProt P09603 33-554)
T1 construct: also called csM-CSF
T1 sequence: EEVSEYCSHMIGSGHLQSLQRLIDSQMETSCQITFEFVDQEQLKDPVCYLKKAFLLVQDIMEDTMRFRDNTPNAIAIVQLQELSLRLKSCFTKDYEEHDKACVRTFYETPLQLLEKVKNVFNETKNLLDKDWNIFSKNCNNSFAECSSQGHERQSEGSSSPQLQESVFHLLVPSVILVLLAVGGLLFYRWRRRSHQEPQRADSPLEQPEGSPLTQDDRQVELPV
Test: FACS, CHO cells stably transfected with M-CSF (n = 3)
measure: pEC50
Notebook: values listed as pEC50 are -log10 of the concentration (mol/L).

Please review the following examples before continuing.
binder | observed-measurement
Blanche, IgG1_D265A (antibody, V domains shown, tested as IgG1 with D265A in the Fc (EU index); Parental antibody of Caline, Camille, Celine) VH: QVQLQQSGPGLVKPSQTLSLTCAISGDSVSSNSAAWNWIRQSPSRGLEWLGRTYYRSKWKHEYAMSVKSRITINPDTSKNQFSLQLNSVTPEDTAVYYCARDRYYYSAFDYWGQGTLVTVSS VL: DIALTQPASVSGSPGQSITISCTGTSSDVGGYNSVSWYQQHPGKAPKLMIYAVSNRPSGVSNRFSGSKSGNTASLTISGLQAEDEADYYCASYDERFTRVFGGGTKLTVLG | 8.12
HeRX1-10G1, IgG1_D265A (antibody, V domains shown, Prior art antibody; tested as IgG1 with D265A in the Fc (EU index)) VH: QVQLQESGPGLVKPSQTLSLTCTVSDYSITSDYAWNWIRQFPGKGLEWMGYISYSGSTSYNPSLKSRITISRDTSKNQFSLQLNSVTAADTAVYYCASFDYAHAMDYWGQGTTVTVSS VL: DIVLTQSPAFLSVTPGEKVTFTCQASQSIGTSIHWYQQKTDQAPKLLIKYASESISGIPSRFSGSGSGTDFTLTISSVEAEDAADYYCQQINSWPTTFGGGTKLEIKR | 8.05
Satine, IgG1_D265A (antibody, V domains shown, tested as IgG1 with D265A in the Fc (EU index)) VH: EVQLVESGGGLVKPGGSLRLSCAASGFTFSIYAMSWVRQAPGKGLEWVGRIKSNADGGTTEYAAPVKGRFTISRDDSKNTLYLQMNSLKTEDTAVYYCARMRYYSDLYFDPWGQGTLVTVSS VL: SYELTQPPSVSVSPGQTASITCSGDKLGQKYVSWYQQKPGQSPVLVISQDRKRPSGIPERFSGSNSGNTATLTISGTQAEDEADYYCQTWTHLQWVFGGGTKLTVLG | 7.95

Let us examine a further case.
pEC50 lookup needed for Meriem, IgG1_D265A (antibody, V domains shown, tested as IgG1 with D265A in the Fc (EU index)) VH: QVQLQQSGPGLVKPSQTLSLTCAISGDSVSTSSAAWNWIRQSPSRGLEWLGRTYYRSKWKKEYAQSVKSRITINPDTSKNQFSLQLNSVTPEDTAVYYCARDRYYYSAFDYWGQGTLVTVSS VL: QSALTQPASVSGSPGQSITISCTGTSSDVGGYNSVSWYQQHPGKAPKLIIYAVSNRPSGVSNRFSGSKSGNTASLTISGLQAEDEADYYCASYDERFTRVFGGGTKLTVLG , thanks.
7.91
